Target: T1, Human CD3eg linker (human)
T1 construct: Single-chain construct; also called recombinant human CD3
T1 chain: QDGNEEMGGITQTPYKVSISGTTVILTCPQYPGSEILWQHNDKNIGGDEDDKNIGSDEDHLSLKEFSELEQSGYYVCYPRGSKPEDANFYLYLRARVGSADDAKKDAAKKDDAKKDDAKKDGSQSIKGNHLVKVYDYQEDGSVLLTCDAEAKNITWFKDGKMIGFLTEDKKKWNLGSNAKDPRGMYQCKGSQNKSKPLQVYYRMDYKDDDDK
Experiment: SPR; fold vs parent H183/L072
# fold change of affinity values compiled below
Return type: number; implicit unit fold.

Below, 2 binders whose answers are already recorded.
{"BINDER": "H183/L072 VL R54G (antibody, name in Kabat numbering, V domains shown) VH: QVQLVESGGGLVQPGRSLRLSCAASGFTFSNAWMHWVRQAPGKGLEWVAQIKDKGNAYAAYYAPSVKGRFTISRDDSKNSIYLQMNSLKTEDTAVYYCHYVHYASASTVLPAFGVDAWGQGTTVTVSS VL: DIVMTQSPLSLPVTPGEPASISCQASQELVHMNRNTYLHWYQQKPGQAPRLLIYKVSNGFPGVPDRFSGSGSGTDFTLKISRVEAEDVGVYYCAQGTSVPFTFGQGTKLEIK", "fold change of affinity, fold": 1.1}
{"BINDER": "H183/L072 VL A25T (antibody, name in Kabat numbering, V domains shown) VH: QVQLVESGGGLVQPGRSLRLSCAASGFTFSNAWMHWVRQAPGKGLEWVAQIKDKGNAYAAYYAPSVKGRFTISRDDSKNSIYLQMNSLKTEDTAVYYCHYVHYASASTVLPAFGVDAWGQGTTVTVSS VL: DIVMTQSPLSLPVTPGEPASISCQTSQELVHMNRNTYLHWYQQKPGQAPRLLIYKVSNRFPGVPDRFSGSGSGTDFTLKISRVEAEDVGVYYCAQGTSVPFTFGQGTKLEIK", "fold change of affinity, fold": 1.1}

Now examine the next entry.
(Q) Please look up its fold change of affinity: H183/L072 VL N53D (antibody, name in Kabat numbering, V domains shown) VH: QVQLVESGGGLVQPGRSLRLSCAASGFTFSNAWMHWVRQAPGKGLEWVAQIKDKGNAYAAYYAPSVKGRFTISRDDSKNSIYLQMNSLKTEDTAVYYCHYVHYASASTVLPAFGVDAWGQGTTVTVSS VL: DIVMTQSPLSLPVTPGEPASISCQASQELVHMNRNTYLHWYQQKPGQAPRLLIYKVSDRFPGVPDRFSGSGSGTDFTLKISRVEAEDVGVYYCAQGTSVPFTFGQGTKLEIK
(A) 0.2
